- assayed_target: C-X-C chemokine receptor type 6 (Mus musculus) (UniProt Q9EQ16)
- Sequence (Q9EQ16 whole entry, looked up): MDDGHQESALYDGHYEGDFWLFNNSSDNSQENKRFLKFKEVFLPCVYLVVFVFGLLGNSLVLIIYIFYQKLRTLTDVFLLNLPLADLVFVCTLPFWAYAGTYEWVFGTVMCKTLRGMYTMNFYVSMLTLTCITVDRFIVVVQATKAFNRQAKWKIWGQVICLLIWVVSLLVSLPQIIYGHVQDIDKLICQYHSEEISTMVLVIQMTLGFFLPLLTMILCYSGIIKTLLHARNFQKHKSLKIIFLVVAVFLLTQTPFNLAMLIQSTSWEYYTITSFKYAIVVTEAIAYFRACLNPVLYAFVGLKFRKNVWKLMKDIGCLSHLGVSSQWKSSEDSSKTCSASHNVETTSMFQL
- assay_comment: antagonism of murine CXCR6 beta-arrestin recruitment – cell-based, mouse ortholog, CHO-K1, luminescence, selectivity assay for human CXCR6 antagonist project, SAR follow-up (AID 651940)
- protocol_conditions: CHO-K1 mCXCR6 beta-arrestin PathHunter
Calls of active or inactive are those of the source.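 Rule for the calls: active = IC50 below 50 µM, and active in both the human and murine receptor assays; inactive = the rest.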
measured_metric: IC50

- molecule: "COc1ccc(NC(=O)CN2C3CCCC2CC(NC(=O)c2cc(OC)c(OC)c(OC)c2)C3)cc1 (configuration not stated)"
  result: "> 79 µM (inactive)"
- molecule: "COc1ccc(CN2C3CCCC2CC(NC(=O)c2cc(OC)c(OC)c(OC)c2)C3)cc1 (configuration not stated)"
  result: "> 79 µM (inactive)"
- molecule: "COc1ccccc1NC(=O)CN1C2CCCC1CC(NC(=O)c1cc(OC)c(OC)c(OC)c1)C2 (configuration not stated)"
  result: "> 79 µM (inactive)"
- molecule: "COc1cc(C(=O)NC2CC3CCCC(C2)N3CC(=O)Nc2ccc(Cl)cc2)cc(OC)c1OC (configuration not stated)"
  result: "> 79 µM (inactive)"
- molecule: "COc1cc(C(=O)NC2CC3CCCC(C2)N3CC(=O)Nc2ccccc2)cc(OC)c1OC (configuration not stated)"
  result: "> 79 µM (inactive)"
- molecule: "COc1cc(C(=O)NC2CC3CCCC(C2)N3CC(=O)Nc2ccc(F)cc2)cc(OC)c1OC (configuration not stated)"
  result: "> 79 µM (inactive)"
